biological target: human collagenase (human lung fibroblast cell line WI-38) (Homo sapiens, UniProt P03956); construct: purified from culture supernatants from the human lung fibroblast cell line, WI-38; endogenous in cells; assay: Inhibition of Human Lung Fibroblast Collagenase (collagenase inhibitor assay, 14C-acetylated rat skin Type I collagen substrate); settings: purified human collagenase from WI-38 culture supernatants; 14C-collagen fibrils; 5 min pre-incubation at 37 °C, then 37 °C overnight
Sequence (P03956 100-469): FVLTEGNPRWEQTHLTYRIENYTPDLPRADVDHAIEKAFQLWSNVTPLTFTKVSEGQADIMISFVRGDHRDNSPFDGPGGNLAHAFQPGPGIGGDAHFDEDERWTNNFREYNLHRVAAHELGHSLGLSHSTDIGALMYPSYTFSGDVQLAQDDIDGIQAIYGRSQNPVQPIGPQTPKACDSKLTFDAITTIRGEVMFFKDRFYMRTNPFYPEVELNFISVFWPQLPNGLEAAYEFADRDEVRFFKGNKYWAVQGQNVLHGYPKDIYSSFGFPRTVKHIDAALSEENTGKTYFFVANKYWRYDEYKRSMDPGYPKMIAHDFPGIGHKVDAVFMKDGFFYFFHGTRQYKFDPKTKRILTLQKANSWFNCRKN
METRIC NAME: IC50 (µM)
Numbers only, in µM.

Tell me the measured IC50 of CNC(=O)[C@H](Cc1ccc(OC)cc1)NC(=O)C(CC(C)C)C(S)CC(C)=O (single isomer, unassigned) , please. 0.014
